- study_system: human ether-à-go-go-related gene (hERG) potassium channel (human, UniProt Q12809);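 also: peak tail current of the secondary pulse compared with the same well before compound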
- Sequence (Q12809 whole entry, looked up): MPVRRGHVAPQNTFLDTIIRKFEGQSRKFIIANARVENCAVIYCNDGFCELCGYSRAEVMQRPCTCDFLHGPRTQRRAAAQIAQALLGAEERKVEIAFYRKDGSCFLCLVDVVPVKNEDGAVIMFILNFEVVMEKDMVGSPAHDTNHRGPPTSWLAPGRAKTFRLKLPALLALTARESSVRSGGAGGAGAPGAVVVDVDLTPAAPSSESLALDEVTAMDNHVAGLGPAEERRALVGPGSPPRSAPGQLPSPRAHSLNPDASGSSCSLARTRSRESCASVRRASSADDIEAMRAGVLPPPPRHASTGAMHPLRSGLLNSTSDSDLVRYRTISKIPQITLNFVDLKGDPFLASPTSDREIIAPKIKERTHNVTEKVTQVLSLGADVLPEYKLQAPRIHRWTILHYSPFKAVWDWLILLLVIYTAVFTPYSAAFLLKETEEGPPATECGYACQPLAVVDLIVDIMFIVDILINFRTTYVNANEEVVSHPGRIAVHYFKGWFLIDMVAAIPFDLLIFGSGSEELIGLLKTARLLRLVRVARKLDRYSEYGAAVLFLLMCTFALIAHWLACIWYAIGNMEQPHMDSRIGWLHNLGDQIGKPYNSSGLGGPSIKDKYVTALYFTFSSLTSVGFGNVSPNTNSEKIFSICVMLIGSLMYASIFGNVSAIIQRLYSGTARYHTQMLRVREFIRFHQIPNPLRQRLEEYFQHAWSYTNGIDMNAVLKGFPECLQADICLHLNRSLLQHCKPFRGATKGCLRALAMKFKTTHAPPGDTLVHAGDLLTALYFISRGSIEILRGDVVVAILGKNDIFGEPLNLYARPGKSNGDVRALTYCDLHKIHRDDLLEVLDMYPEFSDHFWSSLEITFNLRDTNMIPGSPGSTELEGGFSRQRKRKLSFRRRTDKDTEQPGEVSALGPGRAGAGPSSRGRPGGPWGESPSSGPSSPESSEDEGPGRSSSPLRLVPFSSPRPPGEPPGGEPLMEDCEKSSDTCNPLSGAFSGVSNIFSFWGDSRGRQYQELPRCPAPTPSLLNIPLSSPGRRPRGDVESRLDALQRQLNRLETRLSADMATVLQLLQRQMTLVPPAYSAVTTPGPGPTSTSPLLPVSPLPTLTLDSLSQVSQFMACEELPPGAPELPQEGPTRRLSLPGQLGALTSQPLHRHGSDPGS
- test_summary: primary screen, population patch clamp on CHO cells stably expressing hERG; higher = less effect of the substance
In all, about 310,000 compounds went through this assay and about 14,000 (4.5%) showed an effect of 50% or more. Effects have a minus sign here. This excerpt belongs to a sample that is enriched for strong results.
Tick Condition met if hERG current change (%, negative = inhibition) at 10uM is -20% or greater. Tick Condition not met if hERG current change (%, negative = inhibition) at 10uM is less than -20%.

hERG current change (%, negative = inhibition) at 10uM >= -20% for `COc1ccc(-c2noc(N3CCC(C(=O)Nc4ccccc4Cl)CC3)n2)cc1` ?
Condition met

Item O=C(NCc1ccccc1)c1ccc(CS(=O)Cc2ccc(Cl)cc2)o1 (stereo not shown) with hERG current change (%, negative = inhibition) at 10uM of -20% or above?
Condition not met

Answer whether hERG current change (%, negative = inhibition) at 10uM of CC12CCC(=O)N1C(C(=O)Nc1ccc(F)cc1)CS2 (stereo not shown) is greater than or equal to -20%.
Condition met

Reported hERG current change (%, negative = inhibition) at 10uM at or above -20%? CC(C)C(NC(=O)C1CCCCC1)C(=O)Nc1ccncc1 (stereo not shown)
Condition met

Could you tell me if the measured hERG current change (%, negative = inhibition) at 10uM of `COc1ccc(-c2nnc3ccc(SCC(=O)NCc4ccco4)nn23)cc1OC` reaches -20% or more?
Condition not met

Threshold query (hERG current change (%, negative = inhibition) at 10uM >= -20%) on CC12CCC(=O)N1C(C(=O)OCC(=O)Nc1cccc(S(=O)(=O)N3CCCCCC3)c1)CS2 (stereo not shown)
Condition not met

Does hERG current change (%, negative = inhibition) at 10uM meet or surpass -20% for CC(C)c1ccc(NC(=O)C2CSC3(C)CCC(=O)N23)cc1 (stereo not shown) ?
Condition met

Answer whether hERG current change (%, negative = inhibition) at 10uM of O=C(NCc1cccc(Cl)c1)c1ccc(CS(=O)Cc2ccccc2Cl)o1 (stereo not shown) is greater than or equal to -20%.
Condition met

Determine whether this compound has hERG current change (%, negative = inhibition) at 10uM no lower than -20%: CC12CCC(=O)N1C(C(=O)Nc1ccc(SC(F)F)cc1)CS2 (stereo not shown)
Condition not met

Threshold query (hERG current change (%, negative = inhibition) at 10uM >= -20%) on Cc1ccc(S(=O)(=O)N2CCN(C(=O)C3CSC4(C)CCC(=O)N34)CC2)cc1C (stereo not shown)
Condition met

Check the entry `CCOc1ccc(N(CC(=O)NC(C(C)C)C(C)C)S(=O)(=O)c2ccc(OC)c(OC)c2)cc1` : does hERG current change (%, negative = inhibition) at 10uM equal or exceed -20%?
Condition met

Could you verify whether the entry CC(C)c1ccc(/C=C2\SC(=O)N(CC(=O)NC3C=CS(=O)(=O)C3)C2=O)cc1 (stereo not shown) shows hERG current change (%, negative = inhibition) at 10uM of no less than -20%?
Condition met

Form field: hERG current change (%, negative = inhibition) at 10uM at least -20%? Entry: `O=C(O)CCC(=O)N1CCN(S(=O)(=O)c2ccc3ccccc3c2)CC1`
Condition met

Exam item: decide whether the reported hERG current change (%, negative = inhibition) at 10uM for O=C(NCc1ccccc1Cl)c1ccc(CS(=O)Cc2ccc(Cl)cc2)o1 (stereo not shown) is at least -20%.
Condition not met

Confirm if hERG current change (%, negative = inhibition) at 10uM reported for the compound CC12CCC(=O)N1C(C(=O)N1CCN(S(=O)(=O)c3ccc(F)c(F)c3)CC1)CS2 (stereo not shown) is -20% or above.
Condition not met

Could you tell me if the measured hERG current change (%, negative = inhibition) at 10uM of `O=C(Nc1cccc(Cl)c1)c1cncn1-c1ccc(F)cc1` reaches -20% or more?
Condition not met

In plain terms: is recorded hERG current change (%, negative = inhibition) at 10uM at least -20% for O=C(NCc1ccc2c(c1)OCO2)c1ccc(CS(=O)Cc2cccc(Cl)c2)o1 (stereo not shown) ?
Condition not met

# check: hERG current change (%, negative = inhibition) at 10uM of `CCCCCCc1nnc(N)s1` is greater than or equal to -20%
Condition met

Decide: hERG current change (%, negative = inhibition) at 10uM of O=C(NCc1ccc(Cl)cc1)c1ccc(CS(=O)Cc2cccc(Cl)c2)o1 (stereo not shown) >= -20%?
Condition not met

Does hERG current change (%, negative = inhibition) at 10uM meet or surpass -20% for CS(=O)(=O)O.Cc1cccc(/C=C2/C(=O)/C(=C/c3ccccc3C)C3CCC2N3C)c1 (stereo not shown) ?
Condition met

Confirm if hERG current change (%, negative = inhibition) at 10uM reported for the compound `COC(=O)CCCC(=O)N1CCC(CCC(=O)NC2CC2)CC1` is -20% or above.
Condition met

Could you verify whether the entry CC(NCC(O)COc1ccc(Br)cc1)c1ccccc1.Cl (stereo not shown) shows hERG current change (%, negative = inhibition) at 10uM of no less than -20%?
Condition met

Reported hERG current change (%, negative = inhibition) at 10uM at or above -20%? Cc1ccc(NC(=O)C2CSC3(C)CCC(=O)N23)cc1S(=O)(=O)N1CCOCC1 (stereo not shown)
Condition met

hey, is hERG current change (%, negative = inhibition) at 10uM for this one >= -20%? O=C(NCc1cccs1)c1ccc(CS(=O)Cc2cccc(Cl)c2)o1 (stereo not shown)
Condition not met

Given the entry `COc1ccc(NC(=O)CN(C)Cc2cccs2)cc1Cl` , answer whether its hERG current change (%, negative = inhibition) at 10uM meets or surpasses -20%.
Condition met

Exam item: decide whether the reported hERG current change (%, negative = inhibition) at 10uM for Cc1ccc2c(c1)NCC(C(=O)NC1CCC(C)CC1)O2 (stereo not shown) is at least -20%.
Condition met

Identify whether the reported hERG current change (%, negative = inhibition) at 10uM of the following compound is -20% or greater: `COc1ccc(C(=O)N2CCN(C(=O)c3cc(OC)c(OC)c(OC)c3)CC2)cc1`
Condition met

For this compound, is measured hERG current change (%, negative = inhibition) at 10uM -20% or higher? Cc1ccc(CS(=O)Cc2ccc(C(=O)NCc3ccccc3)o2)cc1 (stereo not shown)
Condition met

Given Cc1ccc(NC(=O)C2CSC3(C)CCC(=O)N23)cc1S(=O)(=O)N1CCCCCC1 (stereo not shown) , state whether its hERG current change (%, negative = inhibition) at 10uM is at least -20%.
Condition not met

In plain terms: is recorded hERG current change (%, negative = inhibition) at 10uM at least -20% for `COc1ccc(CN2CCN(C(=O)COc3ccc4ccccc4c3)CC2)c(OC)c1` ?
Condition not met

For this compound, is measured hERG current change (%, negative = inhibition) at 10uM -20% or higher? COc1ccc(CNC(=O)c2ccc(CS(=O)Cc3cccc(Cl)c3)o2)cc1 (stereo not shown)
Condition not met

Evaluate CC(C)C(NC(=O)c1ccc(F)cc1)C(=O)Nc1cccnc1 (stereo not shown) : hERG current change (%, negative = inhibition) at 10uM at minimum -20%?
Condition met

Textbook exercise: given the entry CC12CCC(=O)N1C(C(=O)OCC(=O)Nc1cc(S(=O)(=O)N3CCCCC3)ccc1Cl)CS2 (stereo not shown) , state whether its hERG current change (%, negative = inhibition) at 10uM is greater than or equal to -20%.
Condition not met

Item `COC(=O)CSc1nn(-c2ccc(F)cc2)c(=S)s1` with hERG current change (%, negative = inhibition) at 10uM of -20% or above?
Condition met

Can `Cc1ccc(N2C(=O)CC(=O)NC2=O)cc1` be said to have hERG current change (%, negative = inhibition) at 10uM at or above -20%?
Condition met

Answer whether hERG current change (%, negative = inhibition) at 10uM of `COc1cc(OC)c(OC)cc1CN1CCN(C(=O)COc2ccc3ccccc3c2)CC1.O=C(O)C(=O)O` is greater than or equal to -20%.
Condition not met

# bool: hERG current change (%, negative = inhibition) at 10uM of `O=C(CSc1ccc2nnc(-c3cccc(F)c3)n2n1)NCc1ccco1` >= -20%
Condition not met

Is hERG current change (%, negative = inhibition) at 10uM for `S=C(Cc1ccc(-c2ccccc2)cc1)N1CCOCC1` at or above -20%?
Condition met

Does hERG current change (%, negative = inhibition) at 10uM meet or surpass -20% for Cc1ccc(CNC(=O)c2ccc(CS(=O)Cc3cccc(Cl)c3)o2)cc1 (stereo not shown) ?
Condition not met

# check: hERG current change (%, negative = inhibition) at 10uM of CC12CCC(=O)N1C(C(=O)N1CCN(S(=O)(=O)c3ccccc3F)CC1)CS2 (stereo not shown) is greater than or equal to -20%
Condition not met
